tested on: Streptococcus sp. 'group A'; assay: growth inhibition of control SK(-) GAS strain, dose response, counter-screen for streptokinase expression inhibitor project, luminescence, kanamycin, BacTiterGlo, confirmation (AID 1900); assay type: functional, organism-based
Activity calls are given as the source filed them. Cut-off read from the data, not from the text of the source: actives have a measured EC50 and inactives only a lower limit.
quantity measured: EC50

                                   compound            target_under_test   recorded_result
0  Oc1nc(NN=C(S)NCc2ccccc2)nc2c1C1(CCCCC1)Cc1ccccc1-2  Streptococcus sp. 'group A'  3.33 µM (active)

[ask] Assign EC50 to the following record: "CCn1c(SCC(=O)Nc2oc(-c3ccccc3)c(-c3ccccc3)c2C#N)nnc1-c1ccco1"
[reply] 10.7 µM (active)

[ask] Using the record for "Oc1ccc(N=Nc2ccc3c(c2)OCCO3)c2ncccc12" , state its measured EC50.
[reply] 0.682 µM (active)

[ask] Check the records and state EC50 for Cc1ccc(NC(=O)C(OC(=O)c2ccc(NC(N)=O)cc2)c2ccccc2)cc1Cl (centres undefined)
[reply] 9.28 µM (active)
